// reported IC50 for each item listed
Target: NRAS WT (Homo sapiens (Human), UniProt P01111+P62937)
Sequence (P01111 whole entry, one chain of several): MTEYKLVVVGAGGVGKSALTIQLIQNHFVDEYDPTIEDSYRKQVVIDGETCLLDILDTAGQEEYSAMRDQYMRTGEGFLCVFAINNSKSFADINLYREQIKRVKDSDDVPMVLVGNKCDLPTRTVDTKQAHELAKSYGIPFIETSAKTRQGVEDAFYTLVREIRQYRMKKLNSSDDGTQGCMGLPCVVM
Experiment: Ras-Raf disruption/FRET/MOA assay, NRAS WT
Type: biochemical
recorded-metric: IC50

INSERT INTO results (smiles_input, result) VALUES
  ('CCn1c(-c2cccnc2[C@H](C)OC)c2c3cc(ccc31)-c1cc(O)cc(c1)C[C@H](NC(=O)[C@H](C(C)C)N(C)C(=O)[C@@H]1CO[C@H](C)CN1C(=O)[C@@H]1CN1)C(=O)N1CCC[C@H](N1)C(=O)OCC(C)(C)C2', '0.01 to 0.1 µM'),
  ('CCn1c(-c2cccnc2[C@H](C)OC)c2c3cc(ccc31)-c1cc(O)cc(c1)C[C@H](NC(=O)[C@H](C(C)C)N(C)C(=O)[C@@H]1CO[C@H](C)CN1C(=O)[C@H]1CN1)C(=O)N1CCC[C@H](N1)C(=O)OCC(C)(C)C2', '0.01 to 0.1 µM');

====

Attribute: IC50
Target: KRAS G12D (Homo sapiens (Human), UniProt P01116+P62937, G12D)
Sequence (P01116 other isoform, or with tags, fused parts or gaps G12D, one chain of several): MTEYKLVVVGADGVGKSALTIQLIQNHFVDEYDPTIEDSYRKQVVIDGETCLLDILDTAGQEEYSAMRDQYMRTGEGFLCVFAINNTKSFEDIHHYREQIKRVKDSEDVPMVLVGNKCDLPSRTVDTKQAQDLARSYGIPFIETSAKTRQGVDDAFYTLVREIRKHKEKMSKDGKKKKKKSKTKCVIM
Assay: Ras-Raf disruption/FRET/MOA assay, KRAS G12D
Format: biochemical
recorded-metric: IC50

INSERT INTO results (smiles_input, result) VALUES
  ('CCn1c(-c2cnccc2COC)c2c3cc(ccc31)-c1cc(O)cc(c1)C[C@H](NC(=O)[C@H](C(C)C)N(C)C(=O)CN(C)C(=O)[C@@H]1N[C@@H]1C)C(=O)N1CCC[C@H](N1)C(=O)OCC(C)(C)C2', '100 to 1000 nM'),
  ('CCn1c(-c2cccnc2COC)c2c3cc(ccc31)-c1cc(O)cc(c1)C[C@H](NC(=O)[C@H](C(C)C)N(C)C(=O)CCNC(=O)NCCCl)C(=O)N1CCC[C@H](N1)C(=O)OCC(C)(C)C2', '> 10000 nM'),
  ('CCn1c(-c2cnccc2COC)c2c3cc(ccc31)-c1cc(O)cc(c1)C[C@H](NC(=O)[C@H](C(C)C)N(C)C(=O)CN(C)C(=O)[C@H]1N[C@H]1C(=O)OC)C(=O)N1CCC[C@H](N1)C(=O)OCC(C)(C)C2', '100 to 1000 nM'),
  ('CCn1c(-c2cccnc2[C@H](C)OC)c2c3cc(ccc31)-c1cc(O)cc(c1)C[C@H](NC(=O)[C@H](C(C)C)N(C)C(=O)[C@@H]1CO[C@H](C)CN1C(=O)[C@@H]1CN1)C(=O)N1CCC[C@H](N1)C(=O)OCC(C)(C)C2', '10 to 100 nM'),
  ('CCn1c(-c2cccnc2[C@H](C)OC)c2c3cc(ccc31)-c1cc(O)cc(c1)C[C@H](NC(=O)[C@@H](C(C)C)N(C)C(=O)[C@@]1(C)CCCN1C(=O)[C@@H]1CN1)C(=O)N1CCC[C@H](N1)C(=O)OCC(C)(C)C2', '100 to 1000 nM'),
  ('CCn1c(-c2cnccc2COC)c2c3cc(ccc31)-c1cc(O)cc(c1)C[C@H](NC(=O)[C@H](C(C)C)N(C)C(=O)CN(C)C(=O)[C@@H]1N[C@H]1c1ccccc1)C(=O)N1CCC[C@H](N1)C(=O)OCC(C)(C)C2', '1000 to 10000 nM'),
  ('CCn1c(-c2cccnc2[C@H](C)OC)c2c3cc(ccc31)-c1cc(O)cc(c1)C[C@H](NC(=O)[C@H](C(C)C)N(C)C(=O)[C@@H]1CO[C@H](C)CN1C(=O)[C@H]1CN1)C(=O)N1CCC[C@H](N1)C(=O)OCC(C)(C)C2', '10 to 100 nM'),
  ('CCn1c(-c2cccnc2[C@H](C)OC)c2c3cc(ccc31)-c1cc(O)cc(c1)C[C@H](NC(=O)[C@H](C(C)C)N(C)C(=O)[C@]1(C)CCCN1C(=O)[C@H]1CN1)C(=O)N1CCC[C@H](N1)C(=O)OCC(C)(C)C2', '100 to 1000 nM'),
  ('CCn1c(-c2cnccc2COC)c2c3cc(ccc31)-c1cc(O)cc(c1)C[C@H](NC(=O)[C@H](C(C)C)N(C)C(=O)CN(C)C(=O)[C@H]1N[C@H]1c1ccc(OC)cc1)C(=O)N1CCC[C@H](N1)C(=O)OCC(C)(C)C2', '100 to 1000 nM'),
  ('CCn1c(-c2cccnc2[C@H](C)OC)c2c3cc(ccc31)-c1cc(O)cc(c1)C[C@H](NC(=O)[C@H](C(C)C)N(C)C(=O)[C@@]1(C)CCCN1C(=O)[C@@H]1CN1)C(=O)N1CCC[C@H](N1)C(=O)OCC(C)(C)C2', '10 to 100 nM'),
  ('CCn1c(-c2cccnc2[C@H](C)OC)c2c3cc(ccc31)-c1cc(O)cc(c1)C[C@H](NC(=O)[C@@H](C(C)C)N(C)C(=O)[C@@]1(C)CCCN1C(=O)[C@H]1CN1)C(=O)N1CCC[C@H](N1)C(=O)OCC(C)(C)C2', '1000 to 10000 nM'),
  ('CCn1c(-c2cccnc2[C@H](C)OC)c2c3cc(ccc31)-c1cc(O)cc(c1)C[C@H](NC(=O)[C@H](C(C)C)N(C)C(=O)[C@@]1(C)CCCN1C(=O)[C@H]1CN1)C(=O)N1CCC[C@H](N1)C(=O)OCC(C)(C)C2', '100 to 1000 nM');

====

Entries and their measured pIC50 follow.
Biological target: KRAS G12V (Homo sapiens (Human), UniProt P01116+P62937, G12V)
Sequence (P01116 other isoform, or with tags, fused parts or gaps G12V, one chain of several): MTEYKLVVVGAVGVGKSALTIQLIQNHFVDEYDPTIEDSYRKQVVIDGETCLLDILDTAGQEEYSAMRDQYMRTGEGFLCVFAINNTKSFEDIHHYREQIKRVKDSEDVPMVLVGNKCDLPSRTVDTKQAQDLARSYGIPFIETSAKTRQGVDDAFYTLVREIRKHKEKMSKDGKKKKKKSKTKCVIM
Assay: Ras-Raf disruption/FRET/MOA assay (BRAF RBD, Cyclophilin A)
Assay type: biochemical
Details: read-out: KRAS G12V FRET IC50
pIC50: −log10 of the molar value.
recorded-metric: pIC50

INSERT INTO measurements (compound, result) VALUES
  ('CCn1c(-c2cccnc2[C@H](C)OC)c2c3cc(ccc31)-c1csc(n1)C[C@H](NC(=O)[C@H](C(C)C)N(C)C(=O)N1CCC[C@H](N(C)C)C1)C(=O)N1CCC[C@H](N1)C(=O)OCC(C)(C)C2 [Compound A569]', '6.00 to 7.00'),
  ('CCn1c(-c2cccnc2[C@H](C)OC)c2c3cc(ccc31)-c1csc(n1)C[C@H](NC(=O)[C@H](C(C)C)N(C)C(=O)N1CCOC[C@@H]1C)C(=O)N1CCC[C@H](N1)C(=O)OCC(C)(C)C2 [Compound A403]', '6.00 to 7.00');

====

Form field: IC50 (one value per entry).
Molecular target: KRAS G13C (Homo sapiens (Human), UniProt P01116+P62937, G13C)
Sequence (P01116 other isoform, or with tags, fused parts or gaps G13C): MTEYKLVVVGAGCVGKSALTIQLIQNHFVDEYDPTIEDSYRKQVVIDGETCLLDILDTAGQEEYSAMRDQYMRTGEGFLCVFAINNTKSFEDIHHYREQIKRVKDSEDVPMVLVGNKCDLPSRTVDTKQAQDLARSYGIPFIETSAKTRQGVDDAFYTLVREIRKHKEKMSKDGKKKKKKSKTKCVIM
Sequence (P62937 whole entry): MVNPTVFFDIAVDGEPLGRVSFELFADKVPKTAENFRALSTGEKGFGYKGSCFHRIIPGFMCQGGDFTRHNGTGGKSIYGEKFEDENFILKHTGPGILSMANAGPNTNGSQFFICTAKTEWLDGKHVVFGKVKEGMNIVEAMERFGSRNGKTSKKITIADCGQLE
Test: Ras-Raf disruption/FRET/MOA assay (BRAF RBD, Cyclophilin A)
Type: biochemical
Details: read-out: KRAS G13C FRET IC50
recorded-metric: IC50

INSERT INTO results (molecule, recorded_metric, result) VALUES
  ('CCn1c(-c2cnccc2COC)c2c3cc(ccc31)-c1cc(O)cc(c1)C[C@H](NC(=O)[C@H](C(C)C)N(C)C(=O)c1ncc[nH]1)C(=O)N1CCC[C@H](N1)C(=O)OCC(C)(C)C2', 'IC50', '1000 to 10000 nM'),
  ('CCn1c(-c2cccnc2[C@H](C)OC)c2c3cc(ccc31)-c1cc(O)cc(c1)C[C@H](NC(=O)[C@H](C(C)C)N(C)C(=O)[C@H]1C[C@@H]1F)C(=O)N1CCC[C@H](N1)C(=O)OCC(C)(C)C2', 'IC50', '100 to 1000 nM'),
  ('CCn1c(-c2cccnc2[C@H](C)OC)c2c3cc(ccc31)-c1cc(O)cc(c1)C[C@H](NC(=O)[C@H](C(C)C)N(C)C(=O)O[C@H]1CCN(C)C1)C(=O)N1CCC[C@H](N1)C(=O)OCC(C)(C)C2', 'IC50', '10 to 100 nM'),
  ('CCn1c(-c2cccnc2[C@H](C)OC)c2c3cc(ccc31)-c1csc(n1)C[C@H](NC(=O)[C@H](C(C)C)N(C)C(=O)N1[C@H](C)COC[C@H]1C)C(=O)N1CCC[C@H](N1)C(=O)OCC(C)(C)C2', 'IC50', '10 to 100 nM'),
  ('CCn1c(-c2cccnc2[C@H](C)OC)c2c3cc(ccc31)-c1csc(n1)C[C@H](NC(=O)[C@H](C(C)C)N(C)C(=O)N1CC(C(C)(C)O)C1)C(=O)N1CCC[C@H](N1)C(=O)OCC(C)(C)C2', 'IC50', '100 to 1000 nM'),
  ('CCn1c(-c2cccnc2[C@H](C)OC)c2c3cc(ccc31)-c1csc(n1)C[C@H](NC(=O)[C@H](C(C)C)N(C)C(=O)N1CCCCC1)C(=O)N1CCC[C@H](N1)C(=O)OCC(C)(C)C2', 'IC50', '100 to 1000 nM'),
  ('CCn1c(-c2cccnc2[C@H](C)OC)c2c3cc(ccc31)-c1cc(O)cc(c1)C[C@H](NC(=O)C(=C(C)C)N(C)C(C)=O)C(=O)N1CCC[C@H](N1)C(=O)OCC(C)(C)C2', 'IC50', '100 to 1000 nM'),
  ('CCn1c(-c2cccnc2[C@H](C)OC)c2c3cc(ccc31)-c1cc(O)cc(c1)C[C@H](NC(=O)[C@H](C(C)C)N(C)C(=O)[C@H]1OCC[C@H]1N)C(=O)N1CCC[C@H](N1)C(=O)OCC(C)(C)C2', 'IC50', '10 to 100 nM'),
  ('CCn1c(-c2cccnc2[C@H](C)OC)c2c3cc(ccc31)-c1cc(O)cc(c1)C[C@H](NS(=O)(=O)CC1CCC3(CNC3)C1)C(=O)N1CCC[C@H](N1)C(=O)OCC(C)(C)C2 (stereo partly drawn)', 'IC50', '1000 to 10000 nM'),
  ('CCn1c(-c2cccnc2[C@H](C)OC)c2c3cc(ccc31)-c1cc(O)cc(c1)C[C@H](NC(=O)[C@@H]1[C@H]3C[C@H]3CN1C(C)=O)C(=O)N1CCC[C@H](N1)C(=O)OCC(C)(C)C2', 'IC50', '100 to 1000 nM'),
  ('CCn1c(-c2cnccc2COC)c2c3cc(ccc31)-c1cc(O)cc(c1)C[C@H](NC(=O)[C@H](C(C)C)N(C)C(=O)CCCCN)C(=O)N1CCC[C@H](N1)C(=O)OCC(C)(C)C2', 'IC50', '100 to 1000 nM'),
  ('CCn1c(-c2cccnc2[C@H](C)OC)c2c3cc(ccc31)-c1csc(n1)C[C@H](NC(=O)[C@H](C(C)C)N(C)C(=O)N1CCOCC13COC3)C(=O)N1CCC[C@H](N1)C(=O)OCC(C)(C)C2', 'IC50', '100 to 1000 nM'),
  ('CCn1c(-c2cccnc2[C@H](C)OC)c2c3cc(ccc31)-c1csc(n1)C[C@H](NC(=O)N1CCC1)C(=O)N1CCC[C@H](N1)C(=O)OCC(C)(C)C2 [Compound A369]', 'IC50', '100 to 1000 nM'),
  ('CCn1c(-c2cccnc2[C@H](C)OC)c2c3cc(ccc31)-c1csc(n1)C[C@H](NC(=O)[C@H](C(C)C)N(C)C(=O)N(C)CCc1ccncc1)C(=O)N1CCC[C@H](N1)C(=O)OCC(C)(C)C2', 'IC50', '100 to 1000 nM'),
  ('CCn1c(-c2cccnc2[C@H](C)OC)c2c3cc(ccc31)-c1cccc(c1)C[C@H](NC(=O)[C@H](C(C)C)N(C)C(=O)[C@@H]1CCN(C3COC3)C1)C(=O)N1CCC[C@H](N1)C(=O)OCC(C)(C)C2', 'IC50', '1000 to 10000 nM'),
  ('CCn1c(-c2cccnc2[C@H](C)OC)c2c3cc(ccc31)-c1csc(n1)C[C@H](NC(=O)[C@H](C(C)C)N(C)C(=O)N1CC(OC)C1)C(=O)N1CCC[C@H](N1)C(=O)OCC(C)(C)C2 [Compound A205]', 'IC50', '100 to 1000 nM'),
  ('CCn1c(-c2cccnc2[C@H](C)OC)c2c3cc(ccc31)-c1csc(n1)C[C@H](NC(=O)[C@H](C(C)C)N(C)C(=O)N(C)[C@H]1CCN(C)C1)C(=O)N1CCC[C@H](N1)C(=O)OCC(C)(C)C2', 'IC50', '100 to 1000 nM'),
  ('CCn1c(-c2cccnc2[C@H](C)OC)c2c3cc(ccc31)-c1csc(n1)C[C@H](NC(=O)[C@H](C(C)C)N(C)C(=O)N(C)[C@H]1CCCN(C)C1)C(=O)N1CCC[C@H](N1)C(=O)OCC(C)(C)C2', 'IC50', '100 to 1000 nM');
